Data origin, for the record: patent US9249129B2

target.system: kinases (kinome) (Homo sapiens)
Construct: determined in kinobeads assays with mass spectrometry detection of kinases as described previously; endogenous in cells
Sequence (Q8N5S9 whole entry): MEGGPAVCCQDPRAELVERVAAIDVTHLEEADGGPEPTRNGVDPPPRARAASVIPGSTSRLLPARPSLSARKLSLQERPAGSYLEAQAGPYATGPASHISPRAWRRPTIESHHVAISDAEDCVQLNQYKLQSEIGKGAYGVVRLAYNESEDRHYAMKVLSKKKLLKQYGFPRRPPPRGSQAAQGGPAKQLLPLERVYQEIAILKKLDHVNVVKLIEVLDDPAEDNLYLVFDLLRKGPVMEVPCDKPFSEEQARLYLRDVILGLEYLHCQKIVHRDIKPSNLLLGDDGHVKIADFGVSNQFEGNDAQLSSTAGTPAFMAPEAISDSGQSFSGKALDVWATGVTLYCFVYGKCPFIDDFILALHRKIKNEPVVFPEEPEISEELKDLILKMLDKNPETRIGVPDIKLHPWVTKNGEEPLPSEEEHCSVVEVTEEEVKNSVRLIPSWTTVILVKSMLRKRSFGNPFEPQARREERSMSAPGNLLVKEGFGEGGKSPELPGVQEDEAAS
assay.name: kinobeads assay with mass spectrometry detection of kinases (kinase selectivity profile)
test.conditions: CaMKK1 (Other), IPI00792960
pIC50: −log10 of the molar value.
Measured pIC50, listed per entry for reference.

# chem.smiles, pIC50
measured = [
    ("C[C@H]1COCCN1c1nc(-c2ccc(NC(=O)N[C@H]3CCC[C@@H]3O)cc2)cc(-c2cc(F)ccc2S(C)(=O)=O)n1", "< 5.00"),
    ("C[C@H]1COCCN1c1cc(-c2ccccn2)nc(-c2ccc(NC(=O)NCCO)cc2)n1", "< 5.00"),
    ("C[C@H]1COCCN1c1nc(-c2ccc(NC(=O)NC3CC3)cc2)cc(-c2ccccc2S(C)(=O)=O)n1", "< 5.00"),
    ("C[C@H]1COCCN1c1nc(-c2ccc(NC(=O)NC3CC3)cc2)cc(-c2cccnc2S(C)(=O)=O)n1", "< 5.00"),
]

Now look at this entry.
Note to self: pIC50 recorded for C[C@H]1COCCN1c1nc(-c2ccc(NC(=O)NC3CC3)cc2)cc(-c2cc(F)ccc2S(C)(=O)=O)n1 was < 5.00
